- MEASUREMENT TARGET: Cytochrome P450 1A2 (Homo sapiens) (UniProt P05177)
- Sequence (P05177 whole entry, looked up): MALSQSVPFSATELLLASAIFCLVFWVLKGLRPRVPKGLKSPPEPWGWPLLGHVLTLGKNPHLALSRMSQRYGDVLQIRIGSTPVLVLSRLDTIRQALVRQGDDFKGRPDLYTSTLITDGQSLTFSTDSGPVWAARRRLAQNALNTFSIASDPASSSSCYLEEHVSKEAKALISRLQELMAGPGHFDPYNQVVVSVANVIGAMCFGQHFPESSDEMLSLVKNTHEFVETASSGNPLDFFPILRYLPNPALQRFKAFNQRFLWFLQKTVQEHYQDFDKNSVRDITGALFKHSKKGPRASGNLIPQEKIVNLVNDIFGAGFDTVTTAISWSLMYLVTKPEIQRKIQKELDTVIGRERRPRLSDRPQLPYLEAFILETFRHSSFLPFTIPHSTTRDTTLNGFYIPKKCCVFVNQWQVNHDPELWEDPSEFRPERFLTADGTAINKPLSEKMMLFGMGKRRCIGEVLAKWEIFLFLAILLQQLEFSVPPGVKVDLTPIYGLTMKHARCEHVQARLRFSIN
- TEST SUMMARY: Cytochrome panel assay with activity outcomes
- CONDITION NOTES: recombinant CYP, pro-luciferin dealkylation, luminescence, p450-cyp1a2; series mostly up to 57.1 µM
The whole screen tested about 16,000 compounds, of which about 5,700 (36%) were called active. About 24% were inconclusive and are not listed. Calls come from the whole dose curve; as a rule, active = well fitted curve in the direction sought with a large enough effect; inconclusive = small, poorly fitted or top-dose-only effect, or effect the other way; inactive = no such curve, though single readings can be large or run the other way. The list shows a part of the results.
Labels: 1 (yes) = active, 0 (no) = inactive

> print(dat)
                               smiles.entry                        measurement.target      cat
1      CN(Cc1ccco1)c1ncnc2ccc(-c3ccoc3)cc12  Cytochrome P450 1A2 (Homo sapiens) (UniProt P05177)  1 (yes)
2           CCn1c2ccc(Cl)cc2c2nc3ccccc3nc21  Cytochrome P450 1A2 (Homo sapiens) (UniProt P05177)  1 (yes)
3   O=C(c1ccc(Cl)cc1)N1CCN(C(=O)c2ccco2)CC1  Cytochrome P450 1A2 (Homo sapiens) (UniProt P05177)   0 (no)
4  O=C(Cc1ccc(Cl)cc1)N1CCN(C(=O)c2ccco2)CC1  Cytochrome P450 1A2 (Homo sapiens) (UniProt P05177)   0 (no)
5  Cc1ccc(N2C(=O)C(Cl)=C(NCc3ccccc3)C2=O)c(C)c1  Cytochrome P450 1A2 (Homo sapiens) (UniProt P05177)  1 (yes)
6  CCN1C(=O)/C(=C2\SC(=S)N(CCCOC)C2=O)c2ccccc21  Cytochrome P450 1A2 (Homo sapiens) (UniProt P05177)  1 (yes)
